Quick reference for composite z-score among some molecules
- protocolSummary: small-molecule microarray binders of probe aCHRDL2, primary screen, biochemical, biotinylated probe, 635/667 nm fluorescence (AID 1100)
- conditionDetails: higher = more signal
measuredParameter: composite z-score

molecule	recordedValue
CCN(CC)c1ccc(N2CC=CC34O[C@@H]5C=CCOC(=O)[C@@H]5[C@H]3C(=O)N(CCO)[C@@H]4C2=O)cc1 (stereo partly drawn)	0.54
COC(=O)C1=CC(CCCO)=CC(c2ccc(CN3CCCC3)cc2)N(Cc2sc3ccccc3c2Cl)C=C1C(=O)OC (stereo not drawn)	1.05
C=CC[C@]1(C(=O)N(C)C)COC(c2ccc(OCCCO)cc2)=N1	1.26
CCCCC(=C=CC[C@@H](O)c1cccc(OCCO)c1)C[C@@H](O)COCc1ccccc1	-0.325
CCCC=C(CCC)[C@@H](NS(=O)(=O)c1ccc(Cl)cc1)c1ccccc1	0.951
COCCOC(=O)N1C(=O)[C@@]2(c3cc(C#CCC(C(=O)OC)C(=O)OC)ccc31)[C@H](C(N)=O)[C@H]1C(=O)O[C@H](c3ccccc3)[C@H](c3ccccc3)N1[C@@H]2c1ccc(OCCO)cc1	0.25
CC(C)CNC(=O)[C@@H]1c2ccccc2C(=O)N(C2Cc3ccccc3C2)[C@H]1c1ccc(CO)cc1	0.435
C#CCN=C(N)N	-0.534
